System: MDA-MB-468 breast
Experiment: NCI-60 one-dose screen, 48 h (100 = growth as untreated, 0 = no growth, -100 = all killed)
Details: 10 µM unless noted
This is part of a sample that, as a whole, favours compounds with a hit. Of some 83,000 tested, about 20% had one in any assay.
Threshold 60%: growth strictly smaller gives yes (1), otherwise no (0).

{"columns": ["molecule", "classification"],
 "data": [
  ["Oc1ccc2ccccc2c1C1NN=C(c2ccccc2)S1 (stereo unspecified)", "yes (1)"],
  ["COc1cccc(-c2nn(-c3ccccc3)cc2-c2ccnc(NCCNS(=O)(=O)c3cccc(F)c3)c2)c1", "yes (1)"],
  ["Nc1ncnc2nc(Br)[nH]c12", "no (0)"],
  ["COc1ccc(CCO)cc1", "no (0)"],
  ["COc1cccc(/C=N/C(=S)NC2(C)C3CCC(C3)C2(C)C)c1O (stereo unspecified)", "yes (1)"],
  ["Cc1ccc(Nc2nc(SC(C)C)nc(-c3ccccc3)c2C#N)cc1", "no (0)"]
]}

----------
System: MDA-MB-468 breast
Assay: NCI-60 one-dose screen, 48 h
Conditions: 10 µM unless noted
About 83,000 compounds went through this panel and 20% of them were active in at least one assay; those are over-represented in the sample as a whole. Activity calls are given as the source filed them. The calls were made as follows: active = growth percent below 10; inactive = the rest.
Outcomes: active, inactive

{"columns": ["molecule", "study_system", "classification"],
 "data": [
  ["CCCCn1sc(=O)n(Cc2ccc(CNC(=O)OCc3ccc4c(Cl)cc(Cl)c(O)c4n3)cc2)c1=O", "MDA-MB-468 breast", "inactive"],
  ["COc1ccc(-c2nc3c(c(C)nn3-c3ccc(F)cc3)c(=O)[nH]2)cc1", "MDA-MB-468 breast", "inactive"],
  ["CC(=O)Oc1ccc(Nc2c3ccccc3nc3ccccc23)cc1", "MDA-MB-468 breast", "active"],
  ["CN(C)c1ccc(/C=C/c2c(F)cccc2F)cc1", "MDA-MB-468 breast", "inactive"],
  ["O=C(Nc1ccc(/C=C2\\SC(=O)N(Cc3ccc(OC(F)(F)F)cc3)C2=O)cc1)c1ccc(Cl)c([N+](=O)[O-])c1", "MDA-MB-468 breast", "inactive"],
  ["Cc1cc(C)c([I+]c2c(C)cc(C)cc2C)c(C)c1", "MDA-MB-468 breast", "active"],
  ["COc1cc(C(C)n2cc(-c3ccccc3)nn2)ccc1OC1CCCCC1 (configuration not stated)", "MDA-MB-468 breast", "active"],
  ["ClC1(Cl)C2CCCCCCC21 (configuration not stated)", "MDA-MB-468 breast", "inactive"],
  ["CCOC(=O)NNc1nncc2ccccc12", "MDA-MB-468 breast", "inactive"],
  ["O=[N+]([O-])c1ccc([I+]c2ccccc2)cc1", "MDA-MB-468 breast", "active"],
  ["CCCn1nc(C(=O)N2CCCCC2)c2c1CCC(N1CCC(c3ccncc3)CC1)C2 (configuration not stated)", "MDA-MB-468 breast", "inactive"],
  ["COc1cc2nc(-c3ccc(C(F)(F)F)cc3)cc(OCCN3CCCCC3)c2cc1OC", "MDA-MB-468 breast", "inactive"],
  ["CCC1(C2CCCC2)NC(=O)NC1=O (configuration not stated)", "MDA-MB-468 breast", "inactive"],
  ["COc1ccc([C@@H]2[C@@H](O)C(=O)N2c2cc(OC)c(OC)c(OC)c2)cc1Cl", "MDA-MB-468 breast", "inactive"],
  ["COc1cc(C(=O)/C=C/c2c(-c3cccs3)nc3sccn23)cc(OC)c1OC", "MDA-MB-468 breast", "active"],
  ["COc1cc(Nc2nc3ccccc3cc2C(=O)Nc2ccc(F)c(F)c2)cc(OC)c1OC", "MDA-MB-468 breast", "active"],
  ["CCN1C(=O)N(CC)C2C1NN=c1s/c(=C\\c3ccc(OC)cc3)c(=O)n12 (configuration not stated)", "MDA-MB-468 breast", "active"],
  ["COc1ccc2[nH]c(=O)c(/C=C/C(=O)c3ccccc3OC)cc2c1", "MDA-MB-468 breast", "inactive"],
  ["CN1CCc2c(sc3nc4n(-c5ccc(Cl)cc5)c(=O)[nH]n4c(=O)c23)C1", "MDA-MB-468 breast", "inactive"],
  ["Nc1ccc(F)c(Cl)c1F", "MDA-MB-468 breast", "inactive"],
  ["CC(O)/C=C/C=C/C(O)CC/C=C/C(=O)NCC(C)(C)O (configuration not stated)", "MDA-MB-468 breast", "inactive"],
  ["Cc1ncc(C(=O)Nc2ccc(CN3CCN(C)CC3)c(C(F)(F)F)c2)cc1C#Cc1cnc(N)c2ccc(C#N)cc12", "MDA-MB-468 breast", "inactive"]
]}
